Attribution: ChEMBL document CHEMBL2146426

system: Bacillus subtilis; test: Antibacterial activity against Bacillus subtilis ATCC 23857 after overnight incubation by microbroth dilution technique; assay type: functional
Measured MIC by item
Report the figure in µg/mL without appending any unit label.

As a guide, the following entries are already answered.
[[record]]
molecule = "O=[N+]([O-])c1ccc(C2=NOC(c3ccc(N4CCOCC4)cc3)C2)o1 (stereo not drawn)"
number = 12.5

[[record]]
molecule = "O=C1COCCN1c1ccc(C2CC(c3ccc([N+](=O)[O-])o3)=NO2)cc1 (stereo not drawn)"
number = 6.25


Query string: What is its MIC for Bacillus subtilis? Entry: O=[N+]([O-])c1ccc(C2=NOC(c3ccc(N4CCOCC4)c(F)c3)C2)o1 (stereo not drawn)
Result string: 200

Query string: What is its MIC for Bacillus subtilis? Entry: CN1CCN(c2ccc(C3CC(c4ccc([N+](=O)[O-])o4)=NO3)cn2)C(=O)C1 (stereo not drawn)
Result string: 25

Query string: What is its MIC for Bacillus subtilis? Entry: O=C1COCCN1c1ccc(C2CC(c3ccc([N+](=O)[O-])o3)=NO2)cn1 (stereo not drawn)
Result string: 12.5

Query string: What is its MIC for Bacillus subtilis? Entry: CN1CCN(c2ccc(C3CC(c4ccc([N+](=O)[O-])o4)=NO3)cc2)C(=O)C1 (stereo not drawn)
Result string: 6.25

Query string: What is its MIC for Bacillus subtilis? Entry: O=[N+]([O-])c1ccc(C2=NOC(c3ccc(N4CC[S+]([O-])CC4)cc3)C2)o1 (stereo not drawn)
Result string: 6.25

Query string: What is its MIC for Bacillus subtilis? Entry: O=[N+]([O-])c1ccc(C2=NOC(c3ccc(N4CCCCC4)cc3)C2)o1 (stereo not drawn)
Result string: 50

###

assay: Volume of distribution in rat; assay type: ADME, organism-based; conditions: in vivo
assay metric: Vd
Don't forget the unit after the value.

[[record]]
compound = "CC1COc2c(N3CCN(C)CC3)c(F)cc3c(=O)c(C(=O)O)cn1c23 (configuration not stated)"
result = "0.99 L/kg"


Query string: Could you share which Vd value was measured for CC(=O)NC[C@H]1CN(c2ccc(N3CCOCC3)c(F)c2)C(=O)O1 ?
Result string: 0.72 L/kg

###

test: Clearance in Sprague-Dawley rat at 10 mg/kg, iv; type: ADME, organism-based; design: dose 10 mg/kg, route intravenous; conditions: in vivo
assay metric: clearance

Query string: Could you share which clearance value was measured for O=[N+]([O-])c1ccc(C2=NOC(c3ccc(N4CCOCC4)nc3)C2)o1 (centres undefined) ?
Result string: 50.3 mL/min/kg

Query string: Could you share which clearance value was measured for CN1CCN(c2ccc(C3CC(c4ccc([N+](=O)[O-])o4)=NO3)cc2)C(=O)C1 (centres undefined) ?
Result string: 194 mL/min/kg

Query string: Could you share which clearance value was measured for O=[N+]([O-])c1ccc(C2=NOC(c3ccc(N4CCCCC4)cc3)C2)o1 (centres undefined) ?
Result string: 62.8 mL/min/kg

Query string: Could you share which clearance value was measured for O=[N+]([O-])c1ccc(C2=NOC(c3ccc(N4CCOCC4)cc3)C2)o1 (centres undefined) ?
Result string: 108 mL/min/kg

###

assay: Plasma protein binding in mouse at 10 uM after 4 hrs by LC/MS analysis; assay type: ADME, cell-free; settings: read-out: PPB (converted)
Outcome: yes (1) for fraction unbound at 4 h, 10 µM of at least 0.2; no (0) for anything lower.

Take a look at these entries with their results.
[[record]]
compound = "CN1CCN(c2ccc(C3CC(c4ccc([N+](=O)[O-])o4)=NO3)cc2)C(=O)C1 (configuration not stated)"
category_label = "yes (1)"

[[record]]
compound = "O=C1COCCN1c1ccc(C2CC(c3ccc([N+](=O)[O-])o3)=NO2)cn1 (configuration not stated)"
category_label = "yes (1)"

[[record]]
compound = "CN1CCN(c2ccc(C3CC(c4ccc([N+](=O)[O-])o4)=NO3)cc2F)C(=O)C1 (configuration not stated)"
category_label = "no (0)"

[[record]]
compound = "CN1CCN(c2ccc(C3CC(c4ccc([N+](=O)[O-])o4)=NO3)cn2)C(=O)C1 (configuration not stated)"
category_label = "yes (1)"

[[record]]
compound = "O=[N+]([O-])c1ccc(C2=NOC(c3ccc(N4CCOCC4)nc3)C2)o1 (configuration not stated)"
category_label = "no (0)"


Turning to the following compound.
Query string: Is it the case that O=[N+]([O-])c1ccc(C2=NOC(c3ccc(N4CC[S+]([O-])CC4)cc3)C2)o1 (configuration not stated) has fraction unbound at 4 h, 10 µM reaching or exceeding 0.2?
Result string: no (0)
